- test_system: Voltage-dependent L-type calcium channel alpha1C/alpha2delta/beta1b (Homo sapiens)
- experiment_description: Inhibition of L type calcium channel alpha-1c/alpha-2-delta-1/beta-1b expressed in HEK293 cells in presence of -100 mV holding potential by whole-cell patch clamp method
- Type: cell-based
pIC50: −log10 of the molar value.
Is pIC50 at least 5? Then true. If not, false.

{"molecule": "CN1CCC(C(c2ccccc2)N2CCN(C(=O)CC(c3ccccc3)c3ccccc3)CC2)CC1 (centres undefined)", "test_system": "Voltage-dependent L-type calcium channel alpha1C/alpha2delta/beta1b (Homo sapiens)", "label": "false"}
{"molecule": "O=C(NC(c1ccccc1)c1ccccc1)N1CCN(C(c2ccccc2)c2ccc(Cl)cc2Cl)CC1 (centres undefined)", "test_system": "Voltage-dependent L-type calcium channel alpha1C/alpha2delta/beta1b (Homo sapiens)", "label": "true"}
{"molecule": "O=C(NC(c1ccccc1)c1ccccc1)N1CCN(C(c2ccccc2)c2cccc(Cl)c2)CC1 (centres undefined)", "test_system": "Voltage-dependent L-type calcium channel alpha1C/alpha2delta/beta1b (Homo sapiens)", "label": "false"}
{"molecule": "O=C(CC(c1ccccc1)c1ccccc1)N1CCN([C@H](c2ccccc2)c2ccc(Cl)cc2)CC1", "test_system": "Voltage-dependent L-type calcium channel alpha1C/alpha2delta/beta1b (Homo sapiens)", "label": "true"}
{"molecule": "CN1CCC(CN2CCN(C(=O)CC(c3ccccc3)c3ccccc3)CC2)CC1", "test_system": "Voltage-dependent L-type calcium channel alpha1C/alpha2delta/beta1b (Homo sapiens)", "label": "false"}
{"molecule": "O=C(CC(c1ccccc1)c1ccccc1)N1CCN(C(c2ccccc2)c2cccc(C(F)(F)F)c2)CC1 (centres undefined)", "test_system": "Voltage-dependent L-type calcium channel alpha1C/alpha2delta/beta1b (Homo sapiens)", "label": "true"}

Values were extracted from ChEMBL document CHEMBL1156924.
